Catalogue of pIC50 values
TARGET_UNDER_TEST: human EHMT2 913-1193 (Homo sapiens)
Construct: recombinant purified human EHMT2 913-1193, Viva; purchased Viva
Sequence (Q96KQ7 913-1193): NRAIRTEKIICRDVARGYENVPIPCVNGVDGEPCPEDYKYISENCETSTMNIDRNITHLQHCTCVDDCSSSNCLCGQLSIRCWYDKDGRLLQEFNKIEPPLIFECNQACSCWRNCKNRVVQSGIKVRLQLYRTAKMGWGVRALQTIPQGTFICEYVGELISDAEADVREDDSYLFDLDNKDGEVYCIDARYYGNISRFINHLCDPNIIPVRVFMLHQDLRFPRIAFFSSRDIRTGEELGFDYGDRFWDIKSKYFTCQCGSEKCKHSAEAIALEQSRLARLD
ASSAY_DETAILS: EHMT2 enzyme assay on histone peptide substrate (EHMT2 PEP)
Format: biochemical
TEST_CONTEXT: Table VI; read-out: EHMT2 PEP IC50
pIC50: −log10 of the molar value.
PROPERTY_LABEL: pIC50

* CNc1cc(C2CCOCC2)c2cc(OC)c(OC[C@@H]3CCN(C)C3)cc2n1 [Compound 803] | 6.00 to 7.00
* COc1cc(Nc2ccc3[nH]ncc3n2)ncc1OCCCN1CCCC1 [Compound 648] | 5.00 to 6.00
* COc1nc(NC2CCNCC2)ncc1OCC1CCN(C)C1 (stereo not drawn) [Compound 605] | < 5.00
* CCNc1cc(C2CCOCC2)c2cc(OC)c(OCCCN3CCCC3)cc2n1 [Compound 865] | > 7.00
* CNc1ccnc(Nc2ccc(OC)c(OC[C@H]3CNCCO3)c2)n1 [Compound 933] | < 5.00
* COc1cnc(Nc2cccc3[nH]nnc23)cc1OCCCN1CCCC1 [Compound 619] | < 5.00
* CNc1ccnc(Nc2ccc(OC)c(OC[C@@H](C)CN3CCC3)c2)n1 [Compound 943] | 5.00 to 6.00
* CNC(=O)CCNc1cc(C)nc(Nc2cnc(OC)c(OCCCN3CCCC3)c2)n1 [Compound 887] | 6.00 to 7.00
* COc1cnc(NC(=O)/C=C/CN(C)C)cc1OCCCN1CCCC1 [Compound 640] | < 5.00
* COc1cnc(Nc2cccc3nccn23)nc1OCCCN1CCCC1 [Compound 654] | < 5.00
* CNc1cc(C)nc(Nc2ccc(OC)c(CN(C)CCN3CCCC3)c2)n1 [Compound 645] | < 5.00
* COCCN1CCC(c2cc(C)nc3cc(OCCCN4CCCC4)c(OC)cc23)CC1 [Compound 682] | > 7.00
* CCN1CC[C@@H](COc2cc(Nc3nc(C)cc(NCC4CCOCC4)n3)ccc2OC)C1 [Compound 667] | 6.00 to 7.00
* CNc1cc(C)nc(Nc2cc(OCCCN3CCCC3)c3[nH]nnc3c2)n1 [Compound 624] | 6.00 to 7.00
* CNc1cc(C2CCN([C@@H]3CCOC3)CC2)c2cc(OC)c(OCCCN3CCCC3)cc2n1 [Compound 866] | > 7.00
* CNc1ccnc(Nc2ccc(OC)c(OC[C@@H]3CN(C)CCO3)c2)n1 [Compound 936] | < 5.00
* COc1ncc(Nc2nc(C)cc(NCC3COC3)n2)cc1OC[C@H](O)CN1CCCC1 [Compound 884] | < 5.00
* COc1ccc(Nc2nc(C)cc(NC(C)C)n2)cc1OC[C@@H]1CCNC1 [Compound 800] | > 7.00

----------
Catalogue of IC50 values
TARGET_UNDER_TEST: EHMT1 (Homo sapiens, UniProt Q9H9B1)
Sequence (Q9H9B1 whole entry, species assumed): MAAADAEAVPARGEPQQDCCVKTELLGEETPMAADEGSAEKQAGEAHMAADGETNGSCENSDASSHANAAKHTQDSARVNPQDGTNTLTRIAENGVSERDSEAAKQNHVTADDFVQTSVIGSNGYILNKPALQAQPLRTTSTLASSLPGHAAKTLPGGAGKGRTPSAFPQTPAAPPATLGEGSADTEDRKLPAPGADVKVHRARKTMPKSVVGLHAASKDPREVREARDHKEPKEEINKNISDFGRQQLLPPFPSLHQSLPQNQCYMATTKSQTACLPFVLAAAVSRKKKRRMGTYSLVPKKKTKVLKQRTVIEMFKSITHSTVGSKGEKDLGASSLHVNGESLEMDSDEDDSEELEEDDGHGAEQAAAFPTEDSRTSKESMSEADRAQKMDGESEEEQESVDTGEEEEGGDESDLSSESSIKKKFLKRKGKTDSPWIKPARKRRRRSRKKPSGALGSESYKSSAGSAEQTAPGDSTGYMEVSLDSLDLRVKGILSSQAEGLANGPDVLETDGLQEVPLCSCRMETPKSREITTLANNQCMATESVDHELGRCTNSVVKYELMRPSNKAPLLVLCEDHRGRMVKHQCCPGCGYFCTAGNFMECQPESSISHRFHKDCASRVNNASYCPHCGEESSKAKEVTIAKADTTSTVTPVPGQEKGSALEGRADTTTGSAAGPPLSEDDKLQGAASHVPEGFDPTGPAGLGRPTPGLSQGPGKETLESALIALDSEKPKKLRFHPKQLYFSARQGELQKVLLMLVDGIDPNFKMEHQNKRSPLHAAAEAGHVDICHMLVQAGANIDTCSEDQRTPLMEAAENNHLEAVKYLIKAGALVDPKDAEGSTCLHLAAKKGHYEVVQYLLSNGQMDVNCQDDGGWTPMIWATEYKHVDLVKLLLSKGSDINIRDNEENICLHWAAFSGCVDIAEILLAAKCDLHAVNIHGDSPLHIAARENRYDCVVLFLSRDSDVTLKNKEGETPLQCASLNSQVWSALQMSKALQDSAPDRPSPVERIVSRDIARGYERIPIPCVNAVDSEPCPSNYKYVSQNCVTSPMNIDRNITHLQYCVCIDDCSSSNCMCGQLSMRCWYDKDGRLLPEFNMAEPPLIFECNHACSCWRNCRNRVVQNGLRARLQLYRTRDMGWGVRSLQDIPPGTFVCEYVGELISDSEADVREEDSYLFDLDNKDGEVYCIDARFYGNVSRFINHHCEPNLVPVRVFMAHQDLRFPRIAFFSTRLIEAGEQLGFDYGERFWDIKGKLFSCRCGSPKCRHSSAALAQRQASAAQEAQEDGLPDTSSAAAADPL
ASSAY_DETAILS: EHMT1 enzyme assay on peptide substrate (EHMT1 PEP)
Format: biochemical
TEST_CONTEXT: Table III; read-out: EHMT1 PEP (IC50 μM)
PROPERTY_LABEL: IC50

- CNc1ccnc(Nc2ccc(OC)c(OCCCN3CC(C)C3)c2)n1: 0.1 to 1 µM
- CCc1cc(NC)nc(Nc2ccc(OC)c(OCCCN3CCCC3)c2)n1: < 0.1 µM
- CNc1cc(C)nc(Nc2ccc(OC)c(OCC3CCN(C4CCC4)C3)c2)n1 (centres unmarked): < 0.1 µM
- CNc1ccnc(Nc2ccc(OC)c(OCCCN3CCC(C#N)C3)c2)n1 (centres unmarked): > 10 µM
- CNc1ccnc(Nc2cccc(N3CC(N)CC3=O)c2)n1 (centres unmarked): > 10 µM

Origin of measurements: patent US20210198277A1
